Source of measurements: patent US11479533B2

Test system: ppMlc (T18/S19) levels in A7R5 cells
Test: A7R5 in-cell ELISA assay (ppMlc)
Assay type: cell-based, rat
Conditions: Rattus norvegicus, A7R5, A7R5 cells, Table 2; read-out: pMLC IC50 (nM) A7R5
endpoint-name: IC50 (nM)

>>> recorded_result("COc1cccc(C(NCCN(C)C)C(=O)Nc2ccc(-c3cn[nH]c3)cc2)c1 (centres unmarked) [Example 57]")
74
>>> recorded_result("CNCCCNC(C(=O)Nc1ccc(-c2cn[nH]c2)cc1)c1cccc(OC)c1 (centres unmarked) [Example 42]")
359
>>> recorded_result("COCCNC(C(=O)Nc1ccc(-c2cn[nH]c2)c(F)c1)c1cccc(OC)c1 (centres unmarked) [Example 55]")
506
>>> recorded_result("COCCNC(C(=O)Nc1cc(F)c(-c2cn[nH]c2)cc1OCCN(C)C)c1cccc(OC)c1 (centres unmarked) [Example 48]")
314
>>> recorded_result("COCCCNC(C(=O)Nc1ccc(-c2cn[nH]c2)cc1)c1cccc(OC)c1 (centres unmarked) [Example 36]")
1580
>>> recorded_result("CN[C@@H](C(=O)Nc1ccc(-c2cn[nH]c2)cc1)c1ccc(Cl)cc1 [Example 65]")
65
>>> recorded_result("COc1cccc(C(NCCN2CCOCC2)C(=O)Nc2ccc(-c3cn[nH]c3)cc2)c1 (centres unmarked) [Example 50]")
97
>>> recorded_result("CNC(C(=O)Nc1ccc(-c2cn[nH]c2)cc1)c1ccnc(OC)c1 (centres unmarked) [Example 29]")
647

---

Assay: Brain and plasma concentrations in mouse by HPLC/MS/MS
Assay type: in vivo
Conditions: 2.5 mg/kg IV, plasma, 0.25 hr, read-out: Mean Conc. at 0.25 hr, Plasma
endpoint-name: concentration at 0.25 hr (ng/mL)

>>> recorded_result("CNC(C(=O)Nc1ccc(-c2cn[nH]c2)cc1)c1cccc(OC)c1 (stereo not shown)")
268

---

System: ppMlc (T18/S19) levels in A7R5 cells
Assay: A7R5 in-cell ELISA assay (ppMlc)
Type: cell-based, rat
Settings: Rattus norvegicus, A7R5, A7R5 cells, Table 2; read-out: pMLC IC50 (nM) A7R5
Rule: IC50 below 300 nM gives TRUE. Equal to or above 300 nM gives FALSE.

>>> assigned_category("COc1cccc(C(NCCN2CCCC2)C(=O)Nc2ccc(-c3cn[nH]c3)cc2)c1 (centres unmarked)")
"TRUE"
>>> assigned_category("COc1cccc(C(NCC(N)=O)C(=O)Nc2ccc(-c3cn[nH]c3)cc2)c1 (centres unmarked)")
"FALSE"
>>> assigned_category("CNC(C(=O)Nc1ccc(-c2cn[nH]c2)cc1)c1cccc(N(C)C)c1 (centres unmarked)")
"FALSE"
>>> assigned_category("CNC(C(=O)Nc1ccc(-c2cn[nH]c2)cc1)c1cccc(Cl)c1 (centres unmarked)")
"TRUE"
>>> assigned_category("CNC(C(=O)Nc1ccc(-c2cn[nH]c2)cc1)c1cccc(OC(F)F)c1 (centres unmarked)")
"FALSE"

---

Quick list: pIC50 per entry.
System: ACTA2-promoter-driven-luciferase in NIH3T3 cells
Assay: NIH3T3 Acta2-promoter driven-luciferase assay
Assay type: cell-based
Details: Mus musculus, plus TGFβ1, 24 hr, read-out: NIH3T3, Acta2-luc, IC50
pIC50: −log10 of the molar value.
endpoint-name: pIC50

>>> recorded_result("CNC(C(=O)Nc1ccc(-c2cn[nH]c2)cc1)c1ccc(F)cc1 (stereo not drawn)")
6.72
>>> recorded_result("CCNC(C(=O)Nc1ccc(-c2cn[nH]c2)cc1)c1ccc(OC)cc1 (stereo not drawn)")
5.89
>>> recorded_result("COc1cccc(C(NCCOCC(F)(F)F)C(=O)Nc2ccc(-c3cn[nH]c3)cc2)c1 (stereo not drawn)")
5.57
>>> recorded_result("CNC(C(=O)Nc1ccc(-c2cn[nH]c2)cc1)c1ccc(N(C)C)cc1 (stereo not drawn)")
5.91
>>> recorded_result("CNC(C(=O)Nc1ccc(-c2cn[nH]c2)cc1)c1cccc(F)c1 (stereo not drawn)")
6.33
>>> recorded_result("CNC(C(=O)Nc1ccc(-c2cn[nH]c2)cc1)c1ccc(Cl)cc1 (stereo not drawn)")
6.97
>>> recorded_result("CNC(C(=O)Nc1ccc(-c2cn[nH]c2)cc1)c1ccnc(OC)c1 (stereo not drawn)")
6.84
>>> recorded_result("CNC(C(=O)Nc1ccc(-c2cn[nH]c2)cc1)c1cccc(Cl)c1 (stereo not drawn)")
6.80
>>> recorded_result("COCC1(NC(C(=O)Nc2ccc(-c3cn[nH]c3)cc2)c2cccc(OC)c2)CC1 (stereo not drawn)")
5.90
>>> recorded_result("CCNC(C(=O)Nc1ccc(-c2cn[nH]c2)cc1)c1ccc(F)cc1 (stereo not drawn)")
6.13
>>> recorded_result("CCN(CCOC)C(C(=O)Nc1ccc(-c2cn[nH]c2)cc1)c1cccc(OC)c1 (stereo not drawn)")
5.92
>>> recorded_result("COCCNC(C(=O)Nc1cc(F)c(-c2cn[nH]c2)cc1OCCN(C)C)c1cccc(OC)c1 (stereo not drawn)")
5.99
>>> recorded_result("CCNC(C(=O)Nc1ccc(-c2cn[nH]c2)cc1)c1ccc(C)cc1 (stereo not drawn)")
6.97
>>> recorded_result("CNC(C(=O)Nc1ccc(-c2cn[nH]c2)cc1)c1cccc(N(C)C)c1 (stereo not drawn)")
6.47
